System: Solenopsis invicta (red imported fire ant)
Assay name: 24-hour fumigation in sealed 1-L container, fatality rate
Type: in vivo
Study conditions: Table 2: compound at 30 mg in 1-L container
Measured property: Fatality rate (%) Solenopsis invicta
Please answer using the number first and the unit second.

Report Fatality rate (%) Solenopsis invicta for CCCCCCCCCCCC [n-dodecane] please.
5%

Report Fatality rate (%) Solenopsis invicta for CCCCCCCC(C)C [2-methylnonane] please.
100%

Report Fatality rate (%) Solenopsis invicta for CCCCCCCCCC [n-decane] please.
100%

Report Fatality rate (%) Solenopsis invicta for CC(CC(C)(C)C)CC(C)(C)C [2,2,4,6,6-pentamethylheptane] please.
100%
